# ASSAY_SYSTEM: Flt3 (Homo sapiens)
# Construct: purchased Cell Signaling
# Sequence (P36888 27-993): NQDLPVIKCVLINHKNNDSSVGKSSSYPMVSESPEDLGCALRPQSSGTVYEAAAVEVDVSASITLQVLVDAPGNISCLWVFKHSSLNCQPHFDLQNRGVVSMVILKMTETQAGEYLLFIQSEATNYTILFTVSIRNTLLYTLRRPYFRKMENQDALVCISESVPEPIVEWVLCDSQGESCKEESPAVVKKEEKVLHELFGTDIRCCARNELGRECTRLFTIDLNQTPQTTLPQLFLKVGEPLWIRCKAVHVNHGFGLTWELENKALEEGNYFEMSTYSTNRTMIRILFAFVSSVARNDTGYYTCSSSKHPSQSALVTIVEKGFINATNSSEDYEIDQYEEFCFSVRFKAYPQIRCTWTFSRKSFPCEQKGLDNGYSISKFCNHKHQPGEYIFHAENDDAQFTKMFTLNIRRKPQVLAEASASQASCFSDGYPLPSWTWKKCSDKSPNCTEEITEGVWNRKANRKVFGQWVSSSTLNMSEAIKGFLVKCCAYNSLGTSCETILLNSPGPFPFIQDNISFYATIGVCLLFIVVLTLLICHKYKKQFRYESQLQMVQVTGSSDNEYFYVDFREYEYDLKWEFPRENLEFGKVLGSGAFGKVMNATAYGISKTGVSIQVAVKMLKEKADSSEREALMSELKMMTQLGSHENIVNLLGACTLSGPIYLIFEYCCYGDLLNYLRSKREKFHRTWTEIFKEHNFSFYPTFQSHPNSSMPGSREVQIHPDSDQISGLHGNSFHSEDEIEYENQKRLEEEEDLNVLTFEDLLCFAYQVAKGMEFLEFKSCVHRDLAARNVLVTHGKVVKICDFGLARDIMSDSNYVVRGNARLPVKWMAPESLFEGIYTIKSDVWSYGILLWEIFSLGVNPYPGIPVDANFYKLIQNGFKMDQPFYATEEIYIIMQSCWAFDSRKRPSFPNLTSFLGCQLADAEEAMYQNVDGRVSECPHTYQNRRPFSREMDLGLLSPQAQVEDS
# MEASUREMENT_NOTES: Flt3 kinase ELISA bioassay
# Assay type: biochemical
# REPORTED_CONDITIONS: ELISA kinase assay, 200 μM ATP
MEASURE_NAME: IC50 (nM)

[[record]]
structure_notation = "Cc1[nH]c(/C=C2\\C(=O)Nc3ccc(F)cc32)c(C)c1C(=O)NCCNc1ccc(C(=O)Nc2ccc(F)cc2N)cn1"
measure_name = "IC50"
unit_label = "nM"
observed_measurement = 63


(a) Cc1[nH]c(/C=C2\C(=O)Nc3ccc(F)cc32)c(C)c1C(=O)NCCCNc1ccc(C(=O)Nc2ccccc2N)cn1
(b) Cc1[nH]c(/C=C2\C(=O)Nc3ccc(F)cc32)c(C)c1C(=O)NCCNc1ccc(C(=O)Nc2ccccc2N)cn1
# compare IC50 for a vs b ; return the one with the smaller value Answer by quoting the chosen item's label.
b

###

# Tested on: U937
# MEASUREMENT_NOTES: Tumor cell proliferation (MTS), U937
# Assay type: cell-based
# REPORTED_CONDITIONS: Homo sapiens, U-937, U937, 72 hours
MEASURE_NAME: GI50

[[record]]
molecule = "CNC(=O)c1cc(Oc2ccc(NC(=O)Nc3ccc(Cl)c(C(F)(F)F)c3)cc2)ccn1 [Sorafinib, reference compound]"
observed_measurement = "4.06 µM"

[[record]]
molecule = "Cc1[nH]c(/C=N/N=C2\\C(=O)Nc3ccc(F)cc32)c(C)c1C(=O)NCCCCNc1ccc(C(=O)Nc2ccc(F)cc2N)cn1"
observed_measurement = "> 60 µM"

[[record]]
molecule = "Cc1[nH]c(/C=C2\\C(=O)Nc3ccc(F)cc32)c(C)c1C(=O)NCCNc1ccc(C(=O)Nc2ccccc2N)cn1"
observed_measurement = "> 60 µM"


Recall the reported GI50 of Cc1[nH]c(/C=N/N=C2\C(=O)Nc3ccc(F)cc32)c(C)c1C(=O)NCCNc1ccc(C(=O)Nc2ccc(F)cc2N)cn1 on U937 and write it down.
> 60 µM

###

# ASSAY_SYSTEM: Flt3 (Homo sapiens)
# Construct: purchased Cell Signaling
# MEASUREMENT_NOTES: Flt3 kinase ELISA bioassay
# Assay type: biochemical
# REPORTED_CONDITIONS: ELISA kinase assay, 200 μM ATP
MEASURE_NAME: IC50 (nM)

The examples below pair each entry with its known result.
[[record]]
molecule = "Cc1[nH]c(/C=C2\\C(=O)Nc3ccc(F)cc32)c(C)c1C(=O)NCCCCNc1ccc(C(=O)Nc2ccc(F)cc2N)cn1 [Example 19]"
assay_system = "Flt3 (Homo sapiens)"
observed_measurement = 21

[[record]]
molecule = "Cc1[nH]c(/C=N/N=C2\\C(=O)Nc3ccc(F)cc32)c(C)c1C(=O)NCCNc1ccc(C(=O)Nc2ccccc2N)cn1 [Example 4]"
assay_system = "Flt3 (Homo sapiens)"
observed_measurement = 870


(a) Cc1[nH]c(/C=C2\C(=O)Nc3ccc(F)cc32)c(C)c1C(=O)NCCCNc1ccc(C(=O)Nc2ccc(F)cc2N)cn1 [Example 16]
(b) Cc1[nH]c(/C=C2\C(=O)Nc3ccc(F)cc32)c(C)c1C(=O)NCCCCNc1ccc(C(=O)Nc2ccccc2N)cn1 [Example 9]
# argmax over IC50 for candidates a and b Identify your selection by its label.
a

Cited source for all entries: patent US8158656B2
